Cited source for all entries: ChEMBL document CHEMBL2218924

biological target: Tyrosine-protein kinase Tec (Homo sapiens) (UniProt P42680); settings: at 10 µM
Sequence (P42680 whole entry): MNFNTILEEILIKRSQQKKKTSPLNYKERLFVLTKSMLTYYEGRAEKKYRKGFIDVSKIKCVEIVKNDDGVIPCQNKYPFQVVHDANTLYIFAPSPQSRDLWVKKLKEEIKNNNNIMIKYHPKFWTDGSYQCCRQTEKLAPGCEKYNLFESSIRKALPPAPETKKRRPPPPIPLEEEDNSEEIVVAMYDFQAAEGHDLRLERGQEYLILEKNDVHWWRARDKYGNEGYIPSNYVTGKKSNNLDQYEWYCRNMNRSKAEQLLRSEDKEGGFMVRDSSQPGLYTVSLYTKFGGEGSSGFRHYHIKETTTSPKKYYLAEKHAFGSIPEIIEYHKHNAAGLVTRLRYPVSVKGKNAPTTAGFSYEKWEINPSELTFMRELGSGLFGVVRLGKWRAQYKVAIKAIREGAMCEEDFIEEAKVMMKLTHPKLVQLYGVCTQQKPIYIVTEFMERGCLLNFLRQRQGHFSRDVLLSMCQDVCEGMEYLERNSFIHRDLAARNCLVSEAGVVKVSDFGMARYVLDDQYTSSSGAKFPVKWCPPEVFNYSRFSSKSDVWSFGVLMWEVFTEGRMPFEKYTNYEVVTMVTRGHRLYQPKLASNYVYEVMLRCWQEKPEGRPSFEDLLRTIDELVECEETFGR
# key: entry, value: residual activity
Give the value in % but do not write % after it.

Observe how each entry below is paired with its result.
1) CC(C)(C)n1nc(Cc2cccc3ccccc23)c2c(N)ncnc21; 10
2) CSc1nc(-c2ccc(F)cc2)c(-c2ccnc(NC(C)c3ccccc3)c2)[nH]1 (stereo unspecified); 63
3) O=C1Cc2c([nH]c3ccc(Br)cc23)-c2ccccc2N1; 55
4) Cn1sc(=O)n(Cc2ccccc2)c1=O; 75
5) O=C(c1cc2cc(O)ccc2[nH]1)c1cc2cc(O)ccc2[nH]1; 21

Q. What value of residual activity has been recorded for this entry: `Nc1n[nH]c2nc3ccccc3nc12`
A. 86
